In this section we review reported protein stability index values for a set of variants.
B1: HESX1 (parent)
chain: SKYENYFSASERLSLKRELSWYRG

variants of: B1; test: protein stability index of a GFP-peptide fusion (GPS, HEK-293T) (PSI 1-6); higher = more stable; conditions: c terminus: a fixed tail appended;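 also: lentivirally expressed fusions sorted by FACS into six bins by GFP to DsRed ratio, PSI derived from sequencing read proportions per bin multiplied by bin number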
Please reply with the number alone, leaving off any unit.

Solved cases (4 shown):
- L15P: 2.57
- F7E: 1.96
- L15W: 2.95
- Y22W: 2.4

// protein stability index lookup, variant = S10T , result: 2.77

Form field protein stability index, entry Y3V : 3.67

Summary for this variant, L19T : protein stability index is 2.31

This collection of values is drawn from the supplement of paper PMC10567573.
